assay: In-vivo pharmacokinetic parameters in mice; parameters: species or system Balb-c mice; conditions: PO 5 mg/kg vs IV 1 mg/kg
Reported F by item:
API: value field is a number in %; no unit string.

>  <Molecule>
Cc1cccc([C@@H](CO)NC(=O)[C@@H](C)N2Cc3ccc(-c4nc(Nc5ccnn5C)ncc4Cl)c(F)c3C2=O)c1 [Embodiment 32]

>  <Measurement>
26

$$$$

Q. Look up F: COc1cc(F)cc([C@@H](CO)NC(=O)[C@@H](C)N2Cc3ccc(-c4nc(NC5CCOCC5)ncc4Cl)c(F)c3C2=O)c1 [Embodiment 33]
A. 25

Q. F lookup needed for C[C@H](C(=O)N[C@H](CO)c1cccc(Cl)c1)N1Cc2ccc(-c3nc(NC4CCOCC4)ncc3F)c(F)c2C1=O [Embodiment 37] , thanks.
A. 54

Q. Which F value belongs to Cc1cccc([C@@H](CO)NC(=O)[C@@H](C)N2Cc3ccc(-c4nc(NC5CCOCC5)ncc4Cl)c(F)c3C2=O)c1 [Embodiment 25] ?
A. 43

Q. Name the recorded F for COc1cc(F)cc([C@@H](CO)NC(=O)[C@@H](C)N2Cc3ccc(-c4nc(NC5CCOCC5)ncc4Cl)nc3C2=O)c1 [Embodiment 18] .
A. 25

Q. Reported F for COc1cc(F)cc([C@@H](CO)NC(=O)[C@@H](C)N2Cc3ccc(-c4nc(NC5CCOCC5)ncc4F)c(F)c3C2=O)c1 [Embodiment 40] : what is it?
A. 59

Q. Which measured F value corresponds to Cc1cccc([C@@H](CO)NC(=O)[C@@H](C)N2Cc3ccc(-c4nc(NC5CCOCC5)ncc4F)c(F)c3C2=O)c1 [Embodiment 31] ?
A. 52

Q. Entry C[C@H](C(=O)N[C@H](CO)c1cccc(Cl)c1)N1Cc2ccc(-c3nc(NC4CCOCC4)ncc3Cl)c(F)c2C1=O [Embodiment 34] : reported F = ?
A. 19
